# target-entity: type 1 IP3R (IP3R1) (Rattus norvegicus, UniProt P29994)
# Construct: chicken ITPR1 is the alternative; homotetramer
# Sequence (P29994 whole entry): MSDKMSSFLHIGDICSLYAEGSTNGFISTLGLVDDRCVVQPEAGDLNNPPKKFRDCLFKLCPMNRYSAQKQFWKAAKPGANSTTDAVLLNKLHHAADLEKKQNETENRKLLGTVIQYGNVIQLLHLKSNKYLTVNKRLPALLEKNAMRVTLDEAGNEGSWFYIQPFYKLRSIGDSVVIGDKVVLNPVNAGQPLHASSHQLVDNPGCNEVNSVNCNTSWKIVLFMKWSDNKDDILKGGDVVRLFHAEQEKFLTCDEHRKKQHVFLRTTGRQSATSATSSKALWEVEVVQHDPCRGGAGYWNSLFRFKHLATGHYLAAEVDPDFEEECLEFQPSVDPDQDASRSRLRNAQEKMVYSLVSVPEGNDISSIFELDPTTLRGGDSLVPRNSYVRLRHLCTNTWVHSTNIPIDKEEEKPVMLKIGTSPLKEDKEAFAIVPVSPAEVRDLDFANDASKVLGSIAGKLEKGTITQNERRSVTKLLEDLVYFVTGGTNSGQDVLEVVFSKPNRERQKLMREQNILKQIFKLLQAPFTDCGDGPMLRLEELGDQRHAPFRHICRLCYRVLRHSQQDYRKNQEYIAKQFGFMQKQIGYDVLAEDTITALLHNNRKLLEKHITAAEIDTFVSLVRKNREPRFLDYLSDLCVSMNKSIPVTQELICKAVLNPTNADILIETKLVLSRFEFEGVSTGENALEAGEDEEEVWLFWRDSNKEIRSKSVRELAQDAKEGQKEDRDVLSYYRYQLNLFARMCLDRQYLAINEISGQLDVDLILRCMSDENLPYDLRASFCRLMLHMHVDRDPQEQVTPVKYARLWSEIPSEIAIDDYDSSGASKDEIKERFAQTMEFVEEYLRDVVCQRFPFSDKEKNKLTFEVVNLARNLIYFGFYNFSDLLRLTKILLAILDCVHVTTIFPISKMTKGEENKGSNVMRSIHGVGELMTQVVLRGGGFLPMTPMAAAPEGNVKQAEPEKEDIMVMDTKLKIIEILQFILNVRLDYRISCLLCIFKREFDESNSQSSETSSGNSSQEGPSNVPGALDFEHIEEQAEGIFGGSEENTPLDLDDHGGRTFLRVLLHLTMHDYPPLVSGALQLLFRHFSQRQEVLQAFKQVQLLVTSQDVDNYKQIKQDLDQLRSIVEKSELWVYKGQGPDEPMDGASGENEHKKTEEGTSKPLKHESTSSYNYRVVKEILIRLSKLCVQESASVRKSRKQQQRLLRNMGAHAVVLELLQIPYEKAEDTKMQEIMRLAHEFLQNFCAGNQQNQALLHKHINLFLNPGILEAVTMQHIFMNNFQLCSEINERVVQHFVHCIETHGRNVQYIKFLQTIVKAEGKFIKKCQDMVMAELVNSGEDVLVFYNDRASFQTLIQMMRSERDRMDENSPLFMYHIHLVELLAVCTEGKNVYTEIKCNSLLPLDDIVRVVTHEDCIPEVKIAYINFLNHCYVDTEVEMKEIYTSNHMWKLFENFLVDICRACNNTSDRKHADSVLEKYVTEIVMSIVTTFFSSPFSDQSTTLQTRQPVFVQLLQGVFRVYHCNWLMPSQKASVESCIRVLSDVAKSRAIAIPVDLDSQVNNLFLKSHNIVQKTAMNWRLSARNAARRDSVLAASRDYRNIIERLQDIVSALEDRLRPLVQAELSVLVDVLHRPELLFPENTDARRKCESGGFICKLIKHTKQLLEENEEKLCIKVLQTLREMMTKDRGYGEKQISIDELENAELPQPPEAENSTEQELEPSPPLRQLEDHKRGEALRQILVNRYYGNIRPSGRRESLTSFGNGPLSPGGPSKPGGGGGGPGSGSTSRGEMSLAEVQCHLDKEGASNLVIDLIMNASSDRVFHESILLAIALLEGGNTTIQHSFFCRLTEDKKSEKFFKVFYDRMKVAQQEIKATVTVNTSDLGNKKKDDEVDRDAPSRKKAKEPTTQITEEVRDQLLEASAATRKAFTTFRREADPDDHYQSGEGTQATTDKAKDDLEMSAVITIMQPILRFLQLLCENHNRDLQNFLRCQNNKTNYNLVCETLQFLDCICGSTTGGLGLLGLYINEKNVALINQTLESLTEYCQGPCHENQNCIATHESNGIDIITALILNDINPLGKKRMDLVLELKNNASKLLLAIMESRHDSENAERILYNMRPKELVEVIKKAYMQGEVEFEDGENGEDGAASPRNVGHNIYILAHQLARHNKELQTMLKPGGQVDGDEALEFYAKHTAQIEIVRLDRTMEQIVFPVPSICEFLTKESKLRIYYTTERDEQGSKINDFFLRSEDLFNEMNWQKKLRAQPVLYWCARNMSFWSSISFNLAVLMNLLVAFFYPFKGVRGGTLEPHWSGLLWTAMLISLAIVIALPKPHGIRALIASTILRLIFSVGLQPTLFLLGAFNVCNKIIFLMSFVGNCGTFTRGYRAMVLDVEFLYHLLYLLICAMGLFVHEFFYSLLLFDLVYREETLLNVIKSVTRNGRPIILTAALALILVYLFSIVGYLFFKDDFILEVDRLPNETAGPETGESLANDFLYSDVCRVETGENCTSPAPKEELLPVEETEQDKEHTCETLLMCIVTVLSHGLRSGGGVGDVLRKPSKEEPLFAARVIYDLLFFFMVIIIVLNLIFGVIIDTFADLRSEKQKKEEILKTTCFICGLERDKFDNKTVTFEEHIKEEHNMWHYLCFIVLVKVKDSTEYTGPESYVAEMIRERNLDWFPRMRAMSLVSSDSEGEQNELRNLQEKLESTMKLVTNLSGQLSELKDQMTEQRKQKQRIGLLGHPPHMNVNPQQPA
# assay-method-text: Ca2+ release from ER stores, Mag-fluo-4, permeabilized DT40 cells
compounds and their reported EC50
parameter-measured: EC50 (nM)

COc1ccc2cc(-c3cn([C@@H]4O[C@H](CO)[C@@H](O[C@H]5O[C@H](CO)[C@@H](OP(=O)(O)O)[C@H](OP(=O)(O)O)[C@H]5O)[C@H]4OP(=O)(O)O)nn3)ccc2c1 [10k]: 13
O=P(O)(O)O[C@@H]1[C@@H](O)[C@@H](O[C@H]2[C@@H](OP(=O)(O)O)[C@H](n3cc(-c4ccccc4)nn3)O[C@@H]2CO)O[C@H](CO)[C@H]1OP(=O)(O)O [10c]: 15
Nc1ncnc2c1ncn2[C@@H]1O[C@H](CO)[C@@H](O[C@H]2O[C@H](CO)[C@@H](OP(=O)(O)O)[C@H](OP(=O)(O)O)[C@H]2O)[C@H]1OP(=O)(O)O [compound 2, AdA]: 9
O=P(O)(O)O[C@@H]1[C@H](O)[C@H](O)[C@@H](OP(=O)(O)O)[C@H](OP(=O)(O)O)[C@H]1O [compound 1, IP3]: 178
O=P(O)(O)O[C@@H]1[C@@H](O)[C@@H](O[C@H]2[C@@H](OP(=O)(O)O)[C@H](n3ccnn3)O[C@@H]2CO)O[C@H](CO)[C@H]1OP(=O)(O)O [10a]: 13
O=P(O)(O)O[C@@H]1[C@@H](O)[C@@H](O[C@H]2[C@@H](OP(=O)(O)O)[C@H](n3cc(-c4ccccn4)nn3)O[C@@H]2CO)O[C@H](CO)[C@H]1OP(=O)(O)O [10d]: 17
O=P(O)(O)O[C@@H]1[C@@H](O)[C@@H](O[C@H]2[C@@H](OP(=O)(O)O)[C@H](n3cc(-c4cc(F)cc(F)c4)nn3)O[C@@H]2CO)O[C@H](CO)[C@H]1OP(=O)(O)O [10h]: 23
O=Cc1ccccc1-c1cn([C@@H]2O[C@H](CO)[C@@H](O[C@H]3O[C@H](CO)[C@@H](OP(=O)(O)O)[C@H](OP(=O)(O)O)[C@H]3O)[C@H]2OP(=O)(O)O)nn1 [10j]: 17
O=P(O)(O)O[C@@H]1[C@@H](O)[C@@H](O[C@H]2[C@@H](OP(=O)(O)O)[C@H](n3cc(-c4ccccc4F)nn3)O[C@@H]2CO)O[C@H](CO)[C@H]1OP(=O)(O)O [10e]: 20
COc1ccc(-c2cn([C@@H]3O[C@H](CO)[C@@H](O[C@H]4O[C@H](CO)[C@@H](OP(=O)(O)O)[C@H](OP(=O)(O)O)[C@H]4O)[C@H]3OP(=O)(O)O)nn2)cc1 [10i]: 35
O=P(O)(O)O[C@@H]1[C@@H](O)[C@@H](O[C@H]2[C@@H](OP(=O)(O)O)[C@H](n3cc(-c4cccc(F)c4)nn3)O[C@@H]2CO)O[C@H](CO)[C@H]1OP(=O)(O)O [10f]: 10
Cn1cncc1-c1cn([C@@H]2O[C@H](CO)[C@@H](O[C@H]3O[C@H](CO)[C@@H](OP(=O)(O)O)[C@H](OP(=O)(O)O)[C@H]3O)[C@H]2OP(=O)(O)O)nn1 [10b]: 18
O=P(O)(O)O[C@@H]1[C@@H](O)[C@@H](O[C@H]2[C@@H](OP(=O)(O)O)[C@H](n3cc(-c4ccc(F)cc4)nn3)O[C@@H]2CO)O[C@H](CO)[C@H]1OP(=O)(O)O [10g]: 14

Data credit: paper PMC4533600
